Sourced from patent US12156909B2

# Test system: HLA-A2
# protocolSummary: HLA binding of NEG8 peptides shared with other flu proteins (Table 5), A2
# measurementParameters: score printed after 'A2:'; no method or unit given
measuredQuantity: HLA binding A2

FLICVSPLQL (Influenza A virus) :: A2:24
AFNMMFLSM :: A2:10
LFLICVSLL (Influenza A virus) :: A2:18
ALSSIRVSS (Influenza A virus) :: A2:16

###

# Test system: HLA-A24
# protocolSummary: HLA binding of NEG8 peptides shared with other flu proteins (Table 5), A24
# measurementParameters: no method or unit given
measuredQuantity: HLA binding A24

AILSLQTFD (Influenza A virus) :: A24:2
AFNMMFLSM :: A24:7
AFSVMFLSM :: A24:7
